# EXPERIMENT_DESCRIPTION: chemical genetic growth profiling, strain panel (AID 1159580);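 also: tested at 20 µM; growth read once vehicle control cultures reached saturation at 30 °C; 1 = growth at the plate median or of vehicle wells; lower values mean less growth of the strain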
# CONDITION_LABEL: S. cerevisiae deletion strains, growth OD, locus YGL240W, strain doc1, hits give low values
About 2,000 (36%) of roughly 5,500 compounds were called active. Not shown: some 18% with an inconclusive outcome. The list shows a part of the results.
EXPERIMENTAL_ENDPOINT: normalized growth

- MOLECULE: "CC(=O)O[C@H]1CC[C@]2(C)C3CC(=O)[C@]4(C)C(C(C)=O)=CCC4C3CC[C@H]2C1 (stereo partly specified)"
  OBSERVED: 1.01
- MOLECULE: "CC(=O)O[C@@H]1CC[C@]2(C)C3CC[C@]4(C)C(=O)CCC4C3CC[C@H]2C1 (stereo partly specified)"
  OBSERVED: 0.985
- MOLECULE: "CN(C)CCc1c[nH]c2ccc(CS(=O)(=O)N3CCCC3)cc12"
  OBSERVED: 0.926
- MOLECULE: "COc1cc2c(cc1O)CCNC2C (stereo unspecified)"
  OBSERVED: 0.971
- MOLECULE: "O=c1[nH]cnc2c1ncn2C1O[C@H](CO)[C@@H](O)[C@H]1O (stereo partly specified)"
  OBSERVED: 1
- MOLECULE: "CC(=O)NS(=O)(=O)c1ccc(NC(=O)c2ccccc2C(=O)O)cc1"
  OBSERVED: 1.01
- MOLECULE: "CCCc1nc2c(C)cc(-c3nc4ccccc4n3C)cc2n1Cc1ccc(-c2ccccc2C(=O)O)cc1"
  OBSERVED: 1.01
- MOLECULE: "CCCCc1nc(Cl)c(CO)n1Cc1ccc(-c2ccccc2-c2nn[nH]n2)cc1"
  OBSERVED: 0.981
- MOLECULE: "CN(C)CCc1c[nH]c2ccc(C[C@H]3COC(=O)N3)cc12"
  OBSERVED: 1.01
- MOLECULE: "CN(C)C(=N)N=C(N)N"
  OBSERVED: 0.996
- MOLECULE: "CNS(=O)(=O)c1ccc(NC(=O)c2ccccc2C(=O)O)cc1"
  OBSERVED: 0.988
